tested on: SN12C renal; assay: NCI tumour cell line growth inhibition, 48 h; in the data active means GI50 below about 0.43 µM; inactive means the rest
Labels: class 1 for active, class 0 for inactive

[
  {
    "smiles text": "CC(=O)/C(=C/c1ccccc1)C(=O)CC(C)C",
    "measurement target": "SN12C renal",
    "assigned category": "class 0"
  },
  {
    "smiles text": "Cc1ccc2oc(=O)cc(/C(=C3/C=CC=N3)c3ccc[nH]3)c2c1",
    "measurement target": "SN12C renal",
    "assigned category": "class 0"
  },
  {
    "smiles text": "Oc1ccc(Nc2ccc3ccccc3c2)cc1",
    "measurement target": "SN12C renal",
    "assigned category": "class 0"
  },
  {
    "smiles text": "CSc1c(C2=C(c3cn(C)c4ccccc34)C(=O)NC2=O)c2ccccc2n1C",
    "measurement target": "SN12C renal",
    "assigned category": "class 0"
  },
  {
    "smiles text": "O=C(CCl)NCCNc1nccc(Nc2ccc(S(=O)(=O)Nc3ccccn3)cc2)n1",
    "measurement target": "SN12C renal",
    "assigned category": "class 0"
  },
  {
    "smiles text": "CC1=CC(C)=NN=C(N)N1S(=O)(=O)c1cc(C)c(Cl)cc1SCc1ccccc1",
    "measurement target": "SN12C renal",
    "assigned category": "class 0"
  },
  {
    "smiles text": "O=C1/C=C/[C@@H](O)[C@@H]2C[C@@H](O)C[C@H]2/C=C/CCC[C@H](CCc2cccc3ccccc23)O1",
    "measurement target": "SN12C renal",
    "assigned category": "class 1"
  }
]
